TEST_SYSTEM: FAK (Mus musculus)
MEASUREMENT_PROTOCOL: Cellular mechanistic FAK inhibition, 4T1 cell lysates
Assay type: cell-based
MEASUREMENT_CONDITIONS: read-out: OXA-11 IC50 (nM) for FAK, 4T1 mammary carcinoma cells
QUANTITY: IC50 (nM)
Use nM as the unit, but write only the number.

Can you share its IC50? I mean this compound: `CCOP(=O)(Cc1ccc(Nc2ncc(C(F)(F)F)c(Nc3ccc([C@H]4CC[C@H](N5CCN(C)CC5)CC4)c4c3C(=O)N(C)C4)n2)c(OC)c1)OCC` 8

----------
System: eight human tumor cell lines
MEASUREMENT_CONDITIONS: read-out: EC50 inhibition of proliferation in 3-D culture; four other cell lines with lower baseline pFAK [Y397]
QUANTITY: EC50

Can you share its EC50? I mean this compound: CCOP(=O)(Cc1ccc(Nc2ncc(C(F)(F)F)c(Nc3ccc([C@H]4CC[C@H](N5CCN(C)CC5)CC4)c4c3C(=O)N(C)C4)n2)c(OC)c1)OCC [OXA-11] > 100 nM

----------
TEST_SYSTEM: Aurora kinase A (Homo sapiens, UniProt O14965)
Sequence (O14965 whole entry): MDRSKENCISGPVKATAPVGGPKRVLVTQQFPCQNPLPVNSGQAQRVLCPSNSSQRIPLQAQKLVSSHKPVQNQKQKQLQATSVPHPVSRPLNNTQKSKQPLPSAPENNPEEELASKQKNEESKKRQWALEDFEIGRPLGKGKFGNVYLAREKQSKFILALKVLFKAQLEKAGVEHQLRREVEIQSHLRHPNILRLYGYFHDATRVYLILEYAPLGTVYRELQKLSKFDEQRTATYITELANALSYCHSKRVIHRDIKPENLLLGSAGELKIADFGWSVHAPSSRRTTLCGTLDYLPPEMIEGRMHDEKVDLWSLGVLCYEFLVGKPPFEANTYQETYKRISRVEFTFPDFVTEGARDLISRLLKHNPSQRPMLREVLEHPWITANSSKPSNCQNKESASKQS
MEASUREMENT_CONDITIONS: read-out: OXA-11 IC50 (nM), Aurora kinase A; cellular mechanistic, cell lysates
QUANTITY: IC50

Can you share its IC50? I mean this compound: `CCOP(=O)(Cc1ccc(Nc2ncc(C(F)(F)F)c(Nc3ccc([C@H]4CC[C@H](N5CCN(C)CC5)CC4)c4c3C(=O)N(C)C4)n2)c(OC)c1)OCC` > 10000 nM

----------
TEST_SYSTEM: KDR (Homo sapiens, UniProt P35968)
Sequence (P35968 20-1356): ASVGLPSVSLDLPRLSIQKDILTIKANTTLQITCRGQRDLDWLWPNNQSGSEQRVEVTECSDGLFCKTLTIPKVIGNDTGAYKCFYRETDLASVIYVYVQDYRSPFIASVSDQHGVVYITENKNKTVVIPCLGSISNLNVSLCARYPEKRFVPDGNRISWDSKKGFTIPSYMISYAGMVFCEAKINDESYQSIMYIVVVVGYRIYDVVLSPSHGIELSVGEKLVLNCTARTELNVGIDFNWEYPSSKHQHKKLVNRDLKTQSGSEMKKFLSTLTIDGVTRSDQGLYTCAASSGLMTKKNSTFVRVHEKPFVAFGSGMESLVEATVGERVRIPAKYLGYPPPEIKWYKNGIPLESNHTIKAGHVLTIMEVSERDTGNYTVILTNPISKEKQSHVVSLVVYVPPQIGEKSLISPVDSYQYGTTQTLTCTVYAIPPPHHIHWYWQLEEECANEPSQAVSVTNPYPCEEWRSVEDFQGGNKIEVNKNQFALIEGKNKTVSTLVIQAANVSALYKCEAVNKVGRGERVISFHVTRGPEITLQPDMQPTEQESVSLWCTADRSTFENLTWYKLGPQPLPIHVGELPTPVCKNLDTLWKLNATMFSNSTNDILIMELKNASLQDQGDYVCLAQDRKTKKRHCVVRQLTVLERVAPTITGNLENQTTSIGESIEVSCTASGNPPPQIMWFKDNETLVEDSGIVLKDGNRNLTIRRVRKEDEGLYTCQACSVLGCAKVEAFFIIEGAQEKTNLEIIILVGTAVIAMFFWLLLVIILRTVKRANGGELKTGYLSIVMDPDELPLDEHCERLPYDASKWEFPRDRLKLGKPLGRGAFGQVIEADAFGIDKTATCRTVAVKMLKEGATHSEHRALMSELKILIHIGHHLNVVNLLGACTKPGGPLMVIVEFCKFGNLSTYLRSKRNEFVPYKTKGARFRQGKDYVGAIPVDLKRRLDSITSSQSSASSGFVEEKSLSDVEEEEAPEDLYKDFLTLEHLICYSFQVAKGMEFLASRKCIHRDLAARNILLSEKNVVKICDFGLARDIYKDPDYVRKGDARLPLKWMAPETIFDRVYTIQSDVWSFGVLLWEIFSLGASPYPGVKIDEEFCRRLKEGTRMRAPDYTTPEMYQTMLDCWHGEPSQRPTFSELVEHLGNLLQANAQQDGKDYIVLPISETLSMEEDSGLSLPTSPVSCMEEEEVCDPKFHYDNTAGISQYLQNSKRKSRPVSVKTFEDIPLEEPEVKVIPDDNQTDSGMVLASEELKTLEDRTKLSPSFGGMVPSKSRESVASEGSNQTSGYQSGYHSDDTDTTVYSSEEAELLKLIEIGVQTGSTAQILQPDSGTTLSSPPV
MEASUREMENT_CONDITIONS: read-out: OXA-11 IC50 (nM), KDR; cellular mechanistic, cell lysates
QUANTITY: IC50

Can you share its IC50? I mean this compound: `CCOP(=O)(Cc1ccc(Nc2ncc(C(F)(F)F)c(Nc3ccc([C@H]4CC[C@H](N5CCN(C)CC5)CC4)c4c3C(=O)N(C)C4)n2)c(OC)c1)OCC` > 10000 nM

----------
System: FAK
MEASUREMENT_PROTOCOL: Cellular mechanistic FAK inhibition, CMMT cell lysates
Type: cell-based
MEASUREMENT_CONDITIONS: read-out: OXA-11 IC50 (nM) for FAK, Monkey, CMMT mammary gland epithelial cells
QUANTITY: IC50 (nM)
Use nM as the unit, but write only the number.

Can you share its IC50? I mean this compound: `CCOP(=O)(Cc1ccc(Nc2ncc(C(F)(F)F)c(Nc3ccc([C@H]4CC[C@H](N5CCN(C)CC5)CC4)c4c3C(=O)N(C)C4)n2)c(OC)c1)OCC` 84

----------
TEST_SYSTEM: FAK (Homo sapiens, UniProt Q05397)
MEASUREMENT_PROTOCOL: FAK Omnia Kinase Assay
MEASUREMENT_CONDITIONS: read-out: biochemical IC50 for FAK inhibition
QUANTITY: IC50 (pM)
Use pM as the unit, but write only the number.

Can you share its IC50? I mean this compound: CCOP(=O)(Cc1ccc(Nc2ncc(C(F)(F)F)c(Nc3ccc([C@H]4CC[C@H](N5CCN(C)CC5)CC4)c4c3C(=O)N(C)C4)n2)c(OC)c1)OCC [OXA-11] 1.2

----------
TEST_SYSTEM: Aurora kinase B (Homo sapiens, UniProt Q96GD4)
Sequence (Q96GD4 whole entry): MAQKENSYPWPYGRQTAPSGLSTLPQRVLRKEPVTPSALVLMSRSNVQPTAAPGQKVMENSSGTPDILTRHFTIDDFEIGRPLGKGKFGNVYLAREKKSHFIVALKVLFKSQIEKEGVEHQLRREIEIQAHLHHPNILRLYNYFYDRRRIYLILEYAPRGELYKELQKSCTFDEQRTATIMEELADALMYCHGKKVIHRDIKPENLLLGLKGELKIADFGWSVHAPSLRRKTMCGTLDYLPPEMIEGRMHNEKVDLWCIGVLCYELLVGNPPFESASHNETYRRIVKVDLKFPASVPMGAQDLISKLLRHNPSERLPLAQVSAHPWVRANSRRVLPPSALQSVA
MEASUREMENT_CONDITIONS: read-out: OXA-11 IC50 (nM), Aurora kinase B; cellular mechanistic, cell lysates
QUANTITY: IC50

Can you share its IC50? I mean this compound: `CCOP(=O)(Cc1ccc(Nc2ncc(C(F)(F)F)c(Nc3ccc([C@H]4CC[C@H](N5CCN(C)CC5)CC4)c4c3C(=O)N(C)C4)n2)c(OC)c1)OCC` > 10000 nM

----------
Test system: RSK1/2
MEASUREMENT_CONDITIONS: read-out: OXA-11 IC50 (nM), RSK1/2; cellular mechanistic, cell lysates
QUANTITY: IC50 (nM)
Use nM as the unit, but write only the number.

Can you share its IC50? I mean this molecule: `CCOP(=O)(Cc1ccc(Nc2ncc(C(F)(F)F)c(Nc3ccc([C@H]4CC[C@H](N5CCN(C)CC5)CC4)c4c3C(=O)N(C)C4)n2)c(OC)c1)OCC` 260

----------
TEST_SYSTEM: Insulin receptor (Homo sapiens, UniProt P06213)
Sequence (P06213 763-1382 limits assumed): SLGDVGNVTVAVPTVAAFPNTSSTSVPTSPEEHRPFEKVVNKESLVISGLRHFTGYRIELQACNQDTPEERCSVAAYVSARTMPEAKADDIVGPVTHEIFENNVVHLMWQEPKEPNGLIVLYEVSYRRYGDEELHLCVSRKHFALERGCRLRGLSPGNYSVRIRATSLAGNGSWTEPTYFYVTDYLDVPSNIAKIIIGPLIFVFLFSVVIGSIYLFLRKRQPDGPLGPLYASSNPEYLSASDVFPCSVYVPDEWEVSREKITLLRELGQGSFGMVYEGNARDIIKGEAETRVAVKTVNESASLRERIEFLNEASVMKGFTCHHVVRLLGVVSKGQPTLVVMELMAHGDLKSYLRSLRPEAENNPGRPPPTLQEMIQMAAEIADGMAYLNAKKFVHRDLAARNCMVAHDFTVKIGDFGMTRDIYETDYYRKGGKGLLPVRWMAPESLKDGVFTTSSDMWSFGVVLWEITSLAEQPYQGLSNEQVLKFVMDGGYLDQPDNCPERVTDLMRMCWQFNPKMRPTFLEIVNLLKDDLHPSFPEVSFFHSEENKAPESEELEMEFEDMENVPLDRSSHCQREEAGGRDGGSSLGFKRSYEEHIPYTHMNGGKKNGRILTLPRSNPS
Sequence (P06213 28-758 partner limits assumed): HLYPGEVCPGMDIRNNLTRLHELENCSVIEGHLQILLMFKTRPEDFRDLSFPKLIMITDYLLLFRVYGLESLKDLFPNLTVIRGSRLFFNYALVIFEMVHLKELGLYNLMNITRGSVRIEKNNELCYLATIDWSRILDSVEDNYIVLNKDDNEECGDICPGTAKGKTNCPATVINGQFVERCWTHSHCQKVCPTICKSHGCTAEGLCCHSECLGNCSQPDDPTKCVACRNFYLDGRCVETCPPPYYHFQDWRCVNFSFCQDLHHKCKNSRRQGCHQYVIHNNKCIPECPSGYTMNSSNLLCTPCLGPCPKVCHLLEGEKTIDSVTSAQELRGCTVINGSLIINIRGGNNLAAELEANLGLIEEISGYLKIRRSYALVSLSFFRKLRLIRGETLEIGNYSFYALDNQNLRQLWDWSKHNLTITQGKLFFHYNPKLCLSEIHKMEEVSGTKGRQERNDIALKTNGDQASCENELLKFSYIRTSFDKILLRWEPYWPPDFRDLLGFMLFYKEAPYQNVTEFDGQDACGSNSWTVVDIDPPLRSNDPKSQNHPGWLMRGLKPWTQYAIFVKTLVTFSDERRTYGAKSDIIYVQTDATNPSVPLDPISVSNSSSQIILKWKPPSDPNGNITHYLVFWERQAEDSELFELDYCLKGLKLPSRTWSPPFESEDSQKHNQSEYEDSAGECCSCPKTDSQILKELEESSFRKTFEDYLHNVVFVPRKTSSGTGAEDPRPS
MEASUREMENT_PROTOCOL: Cell-based kinase assay in cell lysates
MEASUREMENT_CONDITIONS: read-out: OXA-11 IC50 (nM), Insulin receptor; cellular mechanistic, cell lysates
QUANTITY: IC50

Can you share its IC50? I mean this compound: `CCOP(=O)(Cc1ccc(Nc2ncc(C(F)(F)F)c(Nc3ccc([C@H]4CC[C@H](N5CCN(C)CC5)CC4)c4c3C(=O)N(C)C4)n2)c(OC)c1)OCC` > 10000 nM

----------
TEST_SYSTEM: FAK (Rattus norvegicus)
Sequence (O35346 whole entry): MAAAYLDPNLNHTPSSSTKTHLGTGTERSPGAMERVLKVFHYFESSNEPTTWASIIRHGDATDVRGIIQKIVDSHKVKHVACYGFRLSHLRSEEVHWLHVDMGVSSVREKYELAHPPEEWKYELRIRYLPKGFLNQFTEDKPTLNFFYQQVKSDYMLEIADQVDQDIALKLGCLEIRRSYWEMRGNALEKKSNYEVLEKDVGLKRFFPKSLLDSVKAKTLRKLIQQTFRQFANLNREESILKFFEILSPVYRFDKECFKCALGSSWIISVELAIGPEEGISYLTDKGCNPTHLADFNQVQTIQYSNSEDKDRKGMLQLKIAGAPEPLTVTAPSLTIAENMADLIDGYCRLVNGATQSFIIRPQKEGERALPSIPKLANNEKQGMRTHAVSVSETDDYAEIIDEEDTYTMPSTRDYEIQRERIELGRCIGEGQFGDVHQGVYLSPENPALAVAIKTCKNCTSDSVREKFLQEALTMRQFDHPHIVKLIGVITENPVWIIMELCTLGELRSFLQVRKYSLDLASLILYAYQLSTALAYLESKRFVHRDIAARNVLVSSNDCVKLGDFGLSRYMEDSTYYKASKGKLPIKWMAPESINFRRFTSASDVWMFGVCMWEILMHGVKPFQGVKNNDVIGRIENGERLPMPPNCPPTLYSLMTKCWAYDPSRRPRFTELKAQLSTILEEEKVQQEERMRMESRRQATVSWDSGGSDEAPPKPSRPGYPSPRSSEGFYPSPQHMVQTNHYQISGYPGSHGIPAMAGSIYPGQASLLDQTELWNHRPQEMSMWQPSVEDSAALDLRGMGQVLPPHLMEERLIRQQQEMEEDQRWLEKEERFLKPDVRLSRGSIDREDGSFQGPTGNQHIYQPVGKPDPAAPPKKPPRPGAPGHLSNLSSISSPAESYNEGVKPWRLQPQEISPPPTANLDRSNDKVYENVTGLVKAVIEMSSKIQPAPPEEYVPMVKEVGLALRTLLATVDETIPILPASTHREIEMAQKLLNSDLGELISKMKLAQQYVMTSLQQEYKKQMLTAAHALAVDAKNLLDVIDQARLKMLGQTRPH
MEASUREMENT_PROTOCOL: Cellular mechanistic FAK inhibition, RMC cell lysates
Format: cell-based
MEASUREMENT_CONDITIONS: read-out: OXA-11 IC50 (nM) for FAK, RMC kidney mesangial cells
QUANTITY: IC50 (nM)
Use nM as the unit, but write only the number.

Can you share its IC50? I mean this compound: `CCOP(=O)(Cc1ccc(Nc2ncc(C(F)(F)F)c(Nc3ccc([C@H]4CC[C@H](N5CCN(C)CC5)CC4)c4c3C(=O)N(C)C4)n2)c(OC)c1)OCC` 18

----------
System: FAK
MEASUREMENT_PROTOCOL: Cellular mechanistic FAK inhibition, MDCK cell lysates
Type: cell-based
MEASUREMENT_CONDITIONS: read-out: OXA-11 IC50 (nM) for FAK, Dog, MDCK kidney epithelial cells
QUANTITY: IC50 (nM)
Use nM as the unit, but write only the number.

Can you share its IC50? I mean this compound: CCOP(=O)(Cc1ccc(Nc2ncc(C(F)(F)F)c(Nc3ccc([C@H]4CC[C@H](N5CCN(C)CC5)CC4)c4c3C(=O)N(C)C4)n2)c(OC)c1)OCC [OXA-11] 32
